Assay: PhoP regulon inhibitors, Salmonella typhi PhoP promoter GFP reporter, confirmatory (AID 1850);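 further: 0% = induced wells with vehicle and 100% = uninduced wells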
Settings: fluorescence, 4 h, at 50 µM, active compounds read high
Out of some 310,000 compounds screened, about 1,000 (0.32%) were called active. Not all results are given here. Potency and affinity values are given separately.
endpoint_label: inhibition (%)

CC1CCC(NC(=O)c2ccc(S(C)(=O)=O)cc2)CC1 (stereo unspecified); -20
Cc1cccc(NC(=O)C2CCCN(S(=O)(=O)c3cccc4nsnc34)C2)c1 (stereo unspecified); 11
CCOc1ccc(S(=O)(=O)N(C)c2ccc(OCC(=O)NC3=NCCS3)cc2)cc1; -20.3
O=S(=O)(NC1CCCCCC1)c1cccc2cccnc12; 5.87
CCC(C)(C)n1nnnc1C(c1cc2cc(C)cc(C)c2[nH]c1=O)N1CCN(C(=O)c2ccco2)CC1 (stereo unspecified); 8.8
O=C(C[n+]1cc(Br)cc2ccccc21)c1ccccc1; 22
Cc1ccc(Nc2cc(C)nn2-c2nc(C)cc(C)n2)cc1; 5.85
CCN(CC(=O)N1CCC(C(N)=O)CC1)S(=O)(=O)c1ccc(Cl)cc1; -8.55
Cc1cc(C)n(-c2nc(O)cc(=O)[nH]2)n1; -1.88
COc1cccc(C(=O)Nc2ccc(C(=O)c3ccncc3)cc2)c1; -15.6
Cc1cc(NC(=O)NN2CCOCC2)nn1-c1c(Cl)cccc1Cl; -1.26

---

Assay: PhoP regulon inhibitors, Salmonella typhi PhoP promoter GFP reporter, confirmatory (AID 1850);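 further: 0% = induced wells with vehicle and 100% = uninduced wells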
Settings: fluorescence, 4 h, at 50 µM, active compounds read high
Out of some 310,000 compounds screened, about 1,000 (0.32%) were called active. These entries were drawn from the full list. Entries with a potency or affinity are not part of this list.
Recorded measurements of inhibition, one per entry
endpoint_label: inhibition

COCc1cc(CN2CCCC2)c(O)c2ncccc12; -3.73% (inactive)
COCCN(C(=O)COC(=O)C1(C)CC1(Cl)Cl)c1c(N)n(Cc2ccccc2)c(=O)[nH]c1=O (configuration not stated); -4.07% (inactive)
Cc1noc(C)c1COc1ccc(C(=O)N2CCN(S(=O)(=O)c3ccc(Cl)cc3)CC2)cc1; -8.91% (inactive)
CCOC(=O)Nc1nc(C)c(C(=O)c2ccc(Cl)cc2)s1; -3.7% (inactive)
CCCNC(=O)Cn1cnc([N+](=O)[O-])n1; -4.49% (inactive)
OC(CNCC1CCCO1)Cn1c2ccc(Br)cc2c2cc(Br)ccc21 (configuration not stated); -0.49% (inactive)
Cc1ccccc1OCC(O)CN1CCN(c2ccc(Cl)cc2)CC1 (configuration not stated); 6.16% (inactive)
CC(=O)c1ccc(OCC(O)CN2CCN(c3ccc(F)cc3)CC2)cc1 (configuration not stated); 9.79% (inactive)
CCCCCCCNC(=O)C1CC(=O)N(C)C(=Nc2ccc(OC)cc2)S1 (configuration not stated); -2.09% (inactive)
Cc1cccc(NC(=O)c2cc3ccccc3o2)c1; -8.7% (inactive)
Cc1ccc(NS(=O)(=O)c2ccc(C(=O)NCC(c3ccco3)N(C)C)cc2)cc1 (configuration not stated); -2.21% (inactive)
OC(CNCC1CCCO1)Cn1c2ccccc2c2ccccc21 (configuration not stated); 14.3% (inactive)
O=C(Nc1ccccc1)c1cc2ccccc2o1; 21.6% (inactive)
COc1ccc(S(=O)(=O)N(C)CC(=O)NCCC2=CCCCC2)cc1OC; 9.61% (inactive)
O=C(NC(=S)NCc1cccnc1)c1cc(Br)ccc1Cl; -7.31% (inactive)
Oc1c(CN2CCN(c3ccccc3)CC2)cc(Br)c2cccnc12; -1.71% (inactive)
CCOC(=O)C(C)Oc1cccc2c(=O)n(CC(=O)N3CCCc4ccccc43)ccc12 (configuration not stated); 2.67% (inactive)

---

Assay: PhoP regulon inhibitors, Salmonella typhi PhoP promoter GFP reporter, confirmatory (AID 1850);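 further: 0% = induced wells with vehicle and 100% = uninduced wells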
Conditions: fluorescence, 4 h, at 50 µM, active compounds read high
Screen size: about 310,000 compounds; about 1,000 (0.32%) were called active. A selection follows. Measured potencies and affinities stand elsewhere.
Readings of inhibition for the listed compounds
endpoint_label: inhibition (%)

Cc1ccc(CNC(=O)C2CC(c3ccc(C(F)(F)F)cc3)=NO2)o1 (stereo unspecified); -0.47
C=CC1=C(C(=O)O)N2C(=O)C(NC(=O)Cc3ccccc3)C2SC1 (stereo unspecified); -5.97
COc1c[nH]n(-c2ccccc2)c(=O)c1=O; 5.23
CC(C)(C)c1ccc(OCCNCc2ccccc2)cc1; 3.96
COc1ccc(/C=N/Nc2nc(C)cc(-c3ccccc3)n2)cc1OC; -1.16
Cc1cc(C(C)(C)C)ccc1OCCOCCN1CCCC1; -9.74
Cn1c(=O)n(C)c2cc([N+](=O)[O-])c(N3CCN(C(=O)c4ccc(Cl)cc4)CC3)cc21; -4.31
COCCN1CCN(C(=O)C2CCC(=O)N(CCc3ccc(Cl)cc3)C2)CC1 (stereo unspecified); -4.1
Cc1ccc(S(=O)(=O)N2CCC(C(=O)O)CC2)cc1; -0.71
Cc1cc(C(C)(C)C)ccc1OCCN(C)C; -2.78
CCOC(=O)N/N=C/c1ccccc1OCc1ccc(Cl)cc1; 2.12

---

Test: PhoP regulon inhibitors, Salmonella typhi PhoP promoter GFP reporter, confirmatory (AID 1850);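 further: 0% = induced wells with vehicle and 100% = uninduced wells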
Conditions: fluorescence, 4 h, at 50 µM, active compounds read high
Out of some 310,000 compounds screened, about 1,000 (0.32%) were called active. The list is a sample of the results. Measured potencies and affinities stand elsewhere.
endpoint_label: inhibition (%)

O=C(CSc1nnc(CNC(=O)c2cccs2)o1)Nc1cccc(Cl)c1; -8.62
Cc1ccc(S(=O)(=O)Nc2nncs2)cc1; -8.26
Cc1ccc(Nc2ccc(NCc3ccccc3)nn2)cc1C; -4.54
CCOc1ccc(S(=O)(=O)N2CCN(C(=O)c3ccncc3)CC2)cc1; -2.75
CCOC(=O)N1CCN(C2CCCN(C(=O)c3ccccc3SC)C2)CC1 (configuration not stated); 4.8
CC(NS(=O)(=O)c1ccccc1)C(=O)NCc1ccco1 (configuration not stated); 4.53
O=C(Cc1ccc(F)cc1)c1ccc(O)cc1O; -11.9
Cc1ccc2c(Cl)cc(Cl)c(OCC(=O)N(C(C)C)C(C)C)c2n1; -1.43
CCOc1ccc(NC(=O)CSc2nnc(-c3ccncc3)n2CC2CCCO2)cc1 (configuration not stated); -0.03
OCCNc1nc(Nc2cccc(O)c2)nc2ccccc12; -3.51
Cc1ccc(S(=O)(=O)NNC(=O)C(=O)NNc2ccccn2)cc1; 1.07
CCOC(=O)CC(c1ccc(N)cc1)n1c(C)ccc1C (configuration not stated); -3.47

---

# reported inhibition; entries follow
Assay: PhoP regulon inhibitors, Salmonella typhi PhoP promoter GFP reporter, confirmatory (AID 1850);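 further: 0% = induced wells with vehicle and 100% = uninduced wells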
Conditions: fluorescence, 4 h, at 50 µM, active compounds read high
Hit rate of the full screen: of about 310,000 compounds, about 1,000 (0.32%) were called active. Not all results are given here. Measured potencies and affinities stand elsewhere.
endpoint_label: inhibition

C/C(=N\NC(=O)c1nnn(-c2nonc2N)c1-c1ccc2c(c1)OCO2)c1ccccc1; -37.7% (inactive)
C=CCNc1ncnc2c1[nH]c1ccccc12; -0.69% (inactive)
Clc1ccc2[nH]c3c(NCC4CCCO4)ncnc3c2c1 (stereo not given); -14% (inactive)
O=C(C1CCCN(S(=O)(=O)c2cccc3nonc23)C1)N1CCC(Cc2ccccc2)CC1 (stereo not given); -9.59% (inactive)
Cc1ccc(S(=O)(=O)N[C@@H](CO)C(=O)N[C@@H](Cc2ccc(O)cc2)C(=O)O)cc1; 3.35% (inactive)

---

Test: PhoP regulon inhibitors, Salmonella typhi PhoP promoter GFP reporter, confirmatory (AID 1850);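 further: 0% = induced wells with vehicle and 100% = uninduced wells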
Conditions: fluorescence, 4 h, at 50 µM, active compounds read high
Out of some 310,000 compounds screened, about 1,000 (0.32%) were called active. A selection follows. Measured potencies and affinities stand elsewhere.
endpoint_label: inhibition (%)

COc1cc(CNCCN2CCOCC2)ccc1OCc1ccccc1Cl; 8.72
COc1ccc(NC(=O)CN2C(=O)c3cccc4cccc2c34)cc1OC; -7.56
OCc1cn(-c2ccccc2)nc1-c1ccc(-c2nn(-c3ccccc3)cc2CO)cc1; -10.8
Nc1ccc(C(=O)Oc2ccc([N+](=O)[O-])cc2)c(O)c1; -25
COc1ccccc1/C=N/NC(=O)c1nnn(-c2nonc2N)c1CSC1=NCCS1; -3.46
CN(C(=O)c1ccco1)c1nc(-c2ccccc2)cs1; -0.59
CC(=O)c1c(C(C)=O)c(C)n(NC(=O)c2ccc(Cl)cc2)c1C; 2.98
COc1ccc(/C=C/C2=CCN(C)CC2)cc1; 17.2
COc1ccc(C(OCC(O)CN(C)C2CCCCC2)c2ccc(OC)cc2)cc1 (stereo unspecified); -25.4
C=CCOC(=O)C1=C(C)NC(SCC(=O)Nc2nccs2)=C(C#N)C1c1ccc(Cl)cc1 (stereo unspecified); 3.36
Cc1ccc(-c2nn(-c3ccccc3)cc2CSC(=N)N)cc1; 17.4
